assay: qHTS assay for MDR1-selective chemotherapeutics: Primary screen using the drug-selected MDR subline cells KB-V1; settings: KB-V1 MDR cells viability, CellTiter-Glo, 72 h; series mostly up to 46.1 µM; also: nearly all actives have a fitted effect of over 60% in size
In all, about 400,000 compounds went through this assay and about 13,000 (3.2%) were called active. About 18% were inconclusive and are not listed. Calls follow the shape of the dose curve; as a rule, active = well fitted cell-killing curve with a large enough effect; inconclusive = small, poorly fitted or top-dose-only effect, or effect the other way; inactive = flat fitted curve, though single readings scatter. The list comes from a sample in which actives are over-represented; it also holds close analogues and randomly drawn compounds.
Can you answer with just one of these options? active, inactive

# Molecule, Discrete label
rows = [
    ("CCCCNC(=O)CSc1nc2ccc(NC(=O)CSc3nnc(N)s3)cc2s1", "inactive"),
    ("Nc1cccc(OCCCCCOc2cccc(N)c2)c1", "inactive"),
    ("CC(=O)c1ccc(NC(=O)CCc2nc(-c3ccc(C)cc3)no2)cc1", "inactive"),
    ("CCOc1ccc(C(=O)Nc2ccc3nc4c(c(Nc5ccccc5OC)c3c2)CCCC4)cc1", "inactive"),
]

Hey, what did the test say about "Cc1ccc(S(=O)(=O)N2C[C@@H](C)[C@]3(C2)[C@H](O)[C@H](OC(=O)NCc2ccccc2)C[C@H]2C(=O)N(c4ccccc4)C(=O)[C@H]23)cc1" ?
inactive

Hey, what did the test say about Cc1ccc(C)c(N2CCN(C(=O)C3CCC(CNS(=O)(=O)c4cccs4)CC3)CC2)c1 (stereo unspecified) ?
inactive

Hey, what did the test say about "CCOc1cc(N2CCOCC2)c(OCC)cc1NC(=O)COc1cccc(Cl)c1" ?
inactive

Hey, what did the test say about "Cc1cc(O)ccc1-c1cc(C(=O)NCc2cc(C(F)(F)F)cc(C(F)(F)F)c2)[nH]n1" ?
inactive

Hey, what did the test say about "CCNC(=O)CCc1nc(-c2ccc(C)cc2)no1" ?
inactive

Hey, what did the test say about Cc1nn(-c2ccccc2)c(C)c1/C=C/C(=O)OC(C)C(N)=O (stereo unspecified) ?
active

Hey, what did the test say about COCCCN1C(=O)C(CC(=O)NCc2cccs2)CC(C(=O)N2CCOCC2)=C1C (stereo unspecified) ?
inactive

Hey, what did the test say about Cc1ccc(F)c(S(=O)(=O)NC(=O)C2(C)CCN2C(=O)CCc2cccs2)c1 (stereo unspecified) ?
inactive

Hey, what did the test say about "CC(=O)Nc1ccc(NC(=O)[C@@H](NC(=O)c2cccc(C)c2)C(C)C)cc1" ?
inactive

Hey, what did the test say about "Cc1cccc(C(=O)N[C@H](C(=O)NCc2cccs2)C(C)C)c1" ?
active

Hey, what did the test say about "O=c1[nH]c(CCl)nc2cc(-c3ccc(Cl)cc3)sc12" ?
active

----------
assay: qHTS assay for MDR1-selective chemotherapeutics: Primary screen using the drug-selected MDR subline cells KB-V1; settings: KB-V1 MDR cells viability, CellTiter-Glo, 72 h; series mostly up to 46.1 µM; also: nearly all actives have a fitted effect of over 60% in size; also: potency is read from the fitted curve at half-maximal effect
In all, about 400,000 compounds went through this assay and about 13,000 (3.2%) were called active. Another 18% or so got no clear call; they are omitted. Only a selection was taken, and actives are over-represented in it overall.
Measured property: Potency

Example cases with answers are listed next.
# Compound, Reading
measured = [
    ("N#Cc1ccc(OC2=NS(=O)(=O)c3ccccc32)cc1", "inactive"),
    ("COc1ccc(-c2ccc(CN3C(C(C)C)C(=O)N(Cc4cn(CC5CCCCC5)nn4)CCS3(=O)=O)cc2)cn1 (configuration not stated)", "inactive"),
    ("Oc1cccc(/C=N/Nc2ccc(Cl)nn2)c1O", "inactive"),
    ("Cc1cccc(N2CCN(c3c(CN4CCCC4)c(=O)oc4ccccc34)CC2)c1C", "inactive"),
    ("O=C(NCc1ccco1)c1cc2sccc2n1Cc1ccc(F)cc1", "16.4 µM (active)"),
]

Okay, here is my list. What is Potency for each of these?
1. Brc1ccccc1/C=N/Nc1nc2ccccc2o1
2. Brc1ccccc1C1N=C(c2ccccc2)NO1 (configuration not stated)
3. Cc1cccc(CC(=O)Nc2c3c(nn2-c2cccc(Cl)c2)CS(=O)C3)c1 (configuration not stated)
4. Cc1c(CN2CCC(C)CC2)c(=O)n(-c2ccccc2)n1C
5. COc1ccc(-n2nc3c(c2NC(=O)Cc2cccc(C)c2)CS(=O)C3)cc1 (configuration not stated)
6. O=C(O)C1CCCN1c1nc(Cl)ccc1[N+](=O)[O-] (configuration not stated)
7. O=C(NCc1ccc2c(c1)OCO2)c1c(O)nc2sccn2c1=O
8. Oc1c(Br)cccc1/C=N/Nc1c(F)c(F)c(F)c(F)c1F

1. inactive
2. inactive
3. 20.6 µM (active)
4. inactive
5. inactive
6. inactive
7. 8.2 µM (active)
8. 25.9 µM (active)

Okay, here is my list. What is Potency for each of these?
1. C=CCn1c(=O)c(C(=O)NCc2ccc3c(c2)OCO3)c(O)c2ccccc21
2. COc1ccc(CC(=O)Nc2c3c(nn2-c2cccc(Cl)c2)CS(=O)C3)cc1 (configuration not stated)
3. CCOc1ccc(NS(=O)(=O)c2ccc(C(=O)NCC3CCCO3)cc2)cc1 (configuration not stated)
4. CC1CC(C)CN(c2oc(-c3ccc(OCc4ccc(Cl)cc4)cc3)nc2C#N)C1 (configuration not stated)
5. Cc1ccc(OCCC(=O)OCC(=O)N2c3ccccc3NC(=O)C2(C)C)cc1
6. O=C(NCc1ccc2c(c1)OCO2)c1sccc1Br

inactive
inactive
inactive
inactive
inactive
inactive
